Assay: Toxicity liver stage against HepG2, at 10uM
Assay type: cell-based
Design: test concentration 10 uM, cell line HepG2-A16-CD81EGFP
Conditions: human, HepG2-A16-CD81EGFP cells; read-out: INHIBITION
Entries annotated with measured cytotoxicity at 10 µM
All answers are understood in %, so give the number only.

CCN1CCC(CC(=O)N2CCN(c3ccccc3OC)CC2C)CC1 (configuration not stated) ... -4.9
Nc1nc(CN2CCCC(Cn3cncn3)C2)nc2ccccc12 (configuration not stated) ... -8.21
CC(C)(C)C(O)CN1CCN(C(=O)c2cccc3[nH]ncc23)CC1 (configuration not stated) ... 5.93
c1ccc(CN2Cc3ccnn3CC(COCc3cccnc3)C2)nc1 (configuration not stated) ... -146
COc1ccc(C)cc1Nc1nc2c(C)nn(C)c2c(=O)n1C ... 3.96
CC(C)NCC1OCCc2cn(C)nc21 (configuration not stated) ... 9.91
CN1CCCNC(=O)C12CCN(C(=O)c1ccc3[nH]cnc3c1)CC2 ... -1.16
CNS(=O)(=O)CCCNC(C)(C)c1nc(C)cs1 ... 11.1
COc1ccc(CN2C[C@@H]3CN(C(=O)c4ccsc4)C[C@@H]3C2=O)cc1 ... -3.7
O=C(COc1cccc(F)c1)N1CCCCC1c1ccn2ccnc2n1 (configuration not stated) ... -6.11

Req: Write down cytotoxicity at 10 µM measured for item O=C(Cn1cccnc1=O)NC(Cc1cccs1)c1ccccn1 (configuration not stated)
Resp: -2.03

Req: Write down cytotoxicity at 10 µM measured for item CC(C)Cc1cc(NC(=O)c2ccccn2)n(C)n1
Resp: -7.22

Cited source for all entries: ChEMBL document CHEMBL4513216
